Hi there, I'd appreciate the recorded IC50 [pM] versus human IL-33 mm2 Cys (HEK-Blue SEAP) for every entry that follows.
# tested-on: T1, human IL-33 mm2 Cys (human, UniProt O95760 112-270, limits assumed)
# T1 sequence (looked up): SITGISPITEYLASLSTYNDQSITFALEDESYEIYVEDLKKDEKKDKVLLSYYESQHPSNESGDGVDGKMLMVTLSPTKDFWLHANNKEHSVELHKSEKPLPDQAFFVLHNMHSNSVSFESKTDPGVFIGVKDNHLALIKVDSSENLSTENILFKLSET
# assay-notes: cell-based or functional assay
Give just the numeric value; pM need not be written.

Query: For the binder IL33-0232 (antibody, human IgG1, kappa, V domains shown) VH: EVQLVESGGGLVQPGGSLRLSCAASGFTFSSYWMYWVRQAPGKGLEWVAAITPNAGEDYYPESVKGRFTISRDNAKNSLYLQMNSLRAEDTAVYYCARGHYYYTSYSLGYWGQGTLVTVSS VL: DIQMTQSPSSLSASVGDRVTITCKASQNINKHLDWYQQKPGKAPKLLIYFTNNLQTGVPSRFSGSGSGTDFTLTISSLQPEDFATYYCFQYNQGWTFGGGTKVEIKR , what IC50 [pM] versus human IL-33 mm2 Cys (HEK-Blue SEAP) is on record?
Response: 142

Query: For the binder IL33-0216 (antibody, human IgG1, kappa, V domains shown) VH: EVQLVESGGGLVQPGGSLRLSCAASGFTFSSYWMYWVRQAPGKGLEWVAAITPNAGEDYYPESVKGRFTISRDNAKNSLYLQMNSLRAEDTAVYYCARGHYYYTSYSLGYWGQGTLVTVSS VL: DIQMTQSPSSLSASVGDRVTITCKASQNIDKHLDWYQQKPGKAPKLLIYFTNNLQTGVPSRFSGSGSGTDFTLTISSLQPEDFATYYCFQYNQGWTFGGGTKVEIKR , what IC50 [pM] versus human IL-33 mm2 Cys (HEK-Blue SEAP) is on record?
Response: 237

Query: For the binder IL33-0219 (antibody, human IgG1, kappa, V domains shown) VH: EVQLVESGGGLVQPGGSLRLSCAASGFTFSSYWMYWVRQAPGKGLEWVAAITPNAGEDYYPESVKGRFTISRDNAKNSLYLQMNSLRAEDTAVYYCARGHYYYTSYSLGYWGQGTLVTVSS VL: DIQMTQSPSSLSASVGDRVTITCRASQNIQKHLDWYQQKPGKAPKLLIYFTNNLQTGVPSRFSGSGSGTDFTLTISSLQPEDFATYYCFQYNQGWTFGGGTKVEIKR , what IC50 [pM] versus human IL-33 mm2 Cys (HEK-Blue SEAP) is on record?
Response: 142

Query: For the binder IL33-0220 (antibody, human IgG1, kappa, V domains shown) VH: EVQLVESGGGLVQPGGSLRLSCAASGFTFSSYWMYWVRQAPGKGLEWVAAITPNAGEDYYPESVKGRFTISRDNAKNSLYLQMNSLRAEDTAVYYCARGHYYYTSYSLGYWGQGTLVTVSS VL: DIQMTQSPSSLSASVGDRVTITCRASQNIYKHLDWYQQKPGKAPKLLIYFTNNLQTGVPSRFSGSGSGTDFTLTISSLQPEDFATYYCFQYNQGWTFGGGTKVEIKR , what IC50 [pM] versus human IL-33 mm2 Cys (HEK-Blue SEAP) is on record?
Response: 176

Query: For the binder IL33-0224 (antibody, human IgG1, V domains shown) VH: EVQLVESGGGLVQPGGSLRLSCAASGFTFSSYWMYWVRQAPGKGLEWVAAITPNAGEDYYPESVKGRFTISRDNAKNSLYLQMNSLRAEDTAVYYCARGHYYYTSYSLGYWGQGTLVTVSS VL: DIQMTQSPSSLSASVGDRVTITCRASQPISKHLDWYQQKPGKAPKLLIYFTNNLQTGVPSRFSGSGSGTDFTLTISSLQPEDFATYYCFQYNQGWTFGGGTKVEIK , what IC50 [pM] versus human IL-33 mm2 Cys (HEK-Blue SEAP) is on record?
Response: 115

Query: For the binder IL33-0217 (antibody, human IgG1, kappa, V domains shown) VH: EVQLVESGGGLVQPGGSLRLSCAASGFTFSSYWMYWVRQAPGKGLEWVAAITPNAGEDYYPESVKGRFTISRDNAKNSLYLQMNSLRAEDTAVYYCARGHYYYTSYSLGYWGQGTLVTVSS VL: DIQMTQSPSSLSASVGDRVTITCRASQNINKHLDWYQQKPGKAPKLLIYFTNNLQTGVPSRFSGSGSGTDFTLTISSLQPEDFATYYCFQYNQGWTFGGGTKVEIKR , what IC50 [pM] versus human IL-33 mm2 Cys (HEK-Blue SEAP) is on record?
Response: 158
